- TARGET DESC: human Cav3.2 channels (Homo sapiens)
- Construct: human Cav3.2 channel ORF (Open Reading Frame) gene
- Sequence (O95180 whole entry): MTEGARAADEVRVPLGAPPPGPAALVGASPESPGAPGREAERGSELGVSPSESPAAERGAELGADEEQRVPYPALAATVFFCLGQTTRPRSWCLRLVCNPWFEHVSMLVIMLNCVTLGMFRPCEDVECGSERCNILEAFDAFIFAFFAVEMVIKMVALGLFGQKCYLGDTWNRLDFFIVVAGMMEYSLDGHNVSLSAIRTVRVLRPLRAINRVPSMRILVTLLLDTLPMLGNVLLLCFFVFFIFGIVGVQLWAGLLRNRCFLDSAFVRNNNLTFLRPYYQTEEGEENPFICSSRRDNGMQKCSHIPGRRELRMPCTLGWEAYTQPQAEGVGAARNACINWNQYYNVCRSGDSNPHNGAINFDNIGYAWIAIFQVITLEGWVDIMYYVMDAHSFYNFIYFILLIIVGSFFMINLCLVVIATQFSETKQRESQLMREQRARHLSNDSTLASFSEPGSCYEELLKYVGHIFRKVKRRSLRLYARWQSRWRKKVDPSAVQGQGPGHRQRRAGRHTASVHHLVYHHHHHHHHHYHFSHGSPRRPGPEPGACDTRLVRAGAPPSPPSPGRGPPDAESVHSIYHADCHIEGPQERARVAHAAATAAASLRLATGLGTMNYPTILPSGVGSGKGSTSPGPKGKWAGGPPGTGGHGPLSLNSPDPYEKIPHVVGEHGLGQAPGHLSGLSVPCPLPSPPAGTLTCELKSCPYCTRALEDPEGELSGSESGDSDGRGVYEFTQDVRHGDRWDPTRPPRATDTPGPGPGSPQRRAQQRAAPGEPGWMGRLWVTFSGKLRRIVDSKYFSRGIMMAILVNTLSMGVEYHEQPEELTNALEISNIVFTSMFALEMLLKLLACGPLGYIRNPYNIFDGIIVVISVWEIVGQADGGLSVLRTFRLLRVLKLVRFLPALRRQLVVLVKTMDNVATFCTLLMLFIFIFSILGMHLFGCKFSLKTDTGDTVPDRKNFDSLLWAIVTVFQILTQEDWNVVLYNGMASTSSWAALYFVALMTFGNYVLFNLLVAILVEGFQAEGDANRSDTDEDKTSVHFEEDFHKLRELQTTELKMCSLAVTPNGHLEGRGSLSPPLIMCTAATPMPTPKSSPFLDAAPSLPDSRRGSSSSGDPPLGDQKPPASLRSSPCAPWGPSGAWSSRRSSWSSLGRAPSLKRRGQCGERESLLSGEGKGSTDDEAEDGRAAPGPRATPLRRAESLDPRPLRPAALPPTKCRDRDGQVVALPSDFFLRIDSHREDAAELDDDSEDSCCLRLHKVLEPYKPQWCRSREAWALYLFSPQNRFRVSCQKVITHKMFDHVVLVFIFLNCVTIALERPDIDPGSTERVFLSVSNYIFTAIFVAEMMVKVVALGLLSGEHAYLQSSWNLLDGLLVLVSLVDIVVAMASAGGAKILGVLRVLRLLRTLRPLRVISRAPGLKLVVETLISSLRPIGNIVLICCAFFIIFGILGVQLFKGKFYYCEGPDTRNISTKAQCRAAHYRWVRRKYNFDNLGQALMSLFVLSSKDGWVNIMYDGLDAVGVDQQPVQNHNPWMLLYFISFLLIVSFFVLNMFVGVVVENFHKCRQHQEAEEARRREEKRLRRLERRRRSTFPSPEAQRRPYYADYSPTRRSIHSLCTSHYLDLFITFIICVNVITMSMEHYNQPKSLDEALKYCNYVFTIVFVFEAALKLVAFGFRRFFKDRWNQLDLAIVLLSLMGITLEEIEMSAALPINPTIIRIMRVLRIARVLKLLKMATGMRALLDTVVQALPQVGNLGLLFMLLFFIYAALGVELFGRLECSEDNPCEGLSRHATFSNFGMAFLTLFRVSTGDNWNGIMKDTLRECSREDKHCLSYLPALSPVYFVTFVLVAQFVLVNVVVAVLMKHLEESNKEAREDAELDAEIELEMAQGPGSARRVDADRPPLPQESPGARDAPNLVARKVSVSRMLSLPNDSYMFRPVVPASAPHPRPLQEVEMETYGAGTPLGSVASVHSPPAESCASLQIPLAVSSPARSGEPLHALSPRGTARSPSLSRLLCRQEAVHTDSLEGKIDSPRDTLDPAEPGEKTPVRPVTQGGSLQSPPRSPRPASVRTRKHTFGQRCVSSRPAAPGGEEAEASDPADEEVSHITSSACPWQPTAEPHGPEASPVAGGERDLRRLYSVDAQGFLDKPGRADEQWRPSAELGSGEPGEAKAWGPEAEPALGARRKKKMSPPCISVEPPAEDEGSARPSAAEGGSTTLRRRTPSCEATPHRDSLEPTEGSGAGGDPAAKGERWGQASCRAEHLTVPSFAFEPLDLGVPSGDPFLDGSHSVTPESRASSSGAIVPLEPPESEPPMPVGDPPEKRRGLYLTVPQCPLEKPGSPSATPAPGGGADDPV
- EXPERIMENTAL PROTOCOL: T-type calcium blocking action: intracellular calcium (Fluo-4 AM fluorescence) in HEK293 cells steadily expressing human Cav3.2 channels
- CONDITION NOTES: HEK293 cells expressing human Cav3.2; KCl-stimulated calcium influx, Fluo-4 fluorescence; Tables 1 to 3
- Description: T-Type Calcium Blocking Action (1) Construction of Cells Steadily Expressing Human Cav3.2 Channels […] The cells steadily expressing human Cav3.2 channels produced by testing method (1) were seeded on a 96-well plate (Dulbecco's modified Eagle medium (DMEM) medium containing 10% fetal bovine serum (FBS) was used as a medium). […] Then, the cells were further allowed to stand at room temperature under light-shielded conditions for 15 minutes and placed in a microplate reader EnVision (PerkinElmer). […]
Listing of entries alongside the reported pIC50.
Note on pIC50: it is the negative log10 of concentration, concentration in mol/L.

# annotated cases, reported pIC50 shown
>>> measured("C[Si](C)(C)c1ccc(CC(=O)N[C@@H]2CCN(c3cncc(C(F)(F)F)c3)C2)cc1")
6.82
>>> measured("Nc1ccc(CC(=O)N[C@@H]2CCN(c3cncc(C(F)(F)F)c3)C2)cc1")
6.00
>>> measured("O=C(Cc1ccc(C(F)(F)F)c(F)c1)N[C@@H]1CCN(c2cncc(C(F)(F)F)c2)C1")
6.82

So, [2H]C([2H])(C(=O)N[C@@H]1CCN(c2cncc(C(F)(F)F)c2)C1)c1ccc(C(F)(F)F)cc1 ? Its pIC50 was 7.09

So, O=C(Cc1ccc2ncsc2c1)N[C@@H]1CCN(c2ccc(C(F)(F)F)nc2)C1 ? Its pIC50 was 5.96

So, O=C(Cc1nc2ccccc2o1)N[C@@H]1CCN(c2cncc(C(F)(F)F)c2)C1 ? Its pIC50 was 5.96

So, O=C(N[C@@H]1CCN(c2cncc(C(F)(F)F)c2)C1)C1(c2ccc(C(F)(F)F)cc2)CC1 ? Its pIC50 was 6.62

So, O=C(Cc1ccc(C2CC2)cc1)N[C@@H]1CCN(c2nc3ccc(F)cc3s2)C1 ? Its pIC50 was 6.26
